# test_details: ADME solubility determination at pH 2.0 and pH 7.4
# Type: physicochemical
# applied_conditions: aqueous buffer, thermodynamic from solid; PBS pH 2.0, shaken at 25° C. for 24 hours, LC-MS/MS; read-out: Solubility at pH 2.0
reported_metric: solubility at 24 h

Retrieve solubility at 24 h measured for [2H]C([2H])([2H])C([2H])(n1cc(C(F)(F)F)nc1-c1ccc(Cn2ncc3cnc(-c4c(OC)ncnc4C4CC4)nc32)cc1)C([2H])([2H])[2H] [Example 140] and print it.
< 10 µM

Retrieve solubility at 24 h measured for COc1ncnc(C2CC2)c1-c1ncc2ncn(Cc3ccc(-n4nc(C(F)(F)F)cc4C)cc3)c2n1 [Example 210] and print it.
> 10 µM

Retrieve solubility at 24 h measured for COCCOc1ncnc(C2CC2)c1-c1ncc2cnn(Cc3ccc(-c4nc(C(F)(F)F)cn4C)cc3)c2n1 [Example 42] and print it.
> 10 µM

Retrieve solubility at 24 h measured for COc1ncnc(C2CC2)c1-c1ncc2cnn(Cc3ccc(-n4nc(C(F)(F)F)cc4SC)cc3)c2n1 [Example 38] and print it.
< 10 µM

Retrieve solubility at 24 h measured for COc1ncnc(C2CC2)c1-c1ncc2cnn(Cc3ccc(-n4nc(C(F)F)cc4N(C)C)cc3)c2n1 [Example 123] and print it.
< 10 µM

Retrieve solubility at 24 h measured for Cn1cc(C(F)(F)F)nc1-c1ccc(Cn2ncc3cnc(-c4ccccc4S(C)(=O)=O)nc32)cc1 [Example 3] and print it.
> 10 µM

Retrieve solubility at 24 h measured for COc1ncnc(C2CC2)c1-c1ncc2ncn(Cc3ccc(-c4nc(C(F)(F)F)cn4C)cc3)c2n1 [Example 203] and print it.
> 10 µM
